Give % Inhibition of oedema for every item shown.
system: edema induced by carrageenin; experiment: Anti-inflammatory activity, Winter's method (carrageenin edema); format: in vivo, male rats; conditions: 50 mg/kg os; 3 hours after carrageenin; salts' dosage expressed as acid
Answer shape: numeric part, then the unit.

**Query** What % Inhibition of oedema appears in the records for this compound with edema induced by carrageenin? O=C(O)Cc1ccc(OCC2CC2)c(Cl)c1 [DL-lysine 4-cyclopropylmethyleneoxy-3-chlorophenylacetate]
**Result** 81%

**Query** Please do the same for C=CCOc1ccc(CC(=O)O)cc1Cl [4-allyloxy-3-chlorophenylacetic acid, reference compound] as well.
**Result** 34%

**Query** Please do the same for O=C([O-])Cc1ccc(OCC2CC2)c(Cl)c1.O=C([O-])Cc1ccc(OCC2CC2)c(Cl)c1.[Cu+2] as well.
**Result** 71%

**Query** Please do the same for O=C(O)Cc1ccc(OCC2CC2)c(Cl)c1 [4-cyclopropylmethyleneoxy-3-chlorophenylacetic acid] as well.
**Result** 65%

**Query** Please do the same for CCCCC1C(=O)N(c2ccccc2)N(c2ccccc2)C1=O [phenylbutazone, 4-butyl-1,2-diphenyl-3,5-dioxopyrazoline, reference compound] as well.
**Result** 28%

====

system: edema induced by carrageenin; test: Anti-inflammatory activity, Winter's method (carrageenin edema); type: in vivo, male rats; details: 10 mg/kg os; 3 hours after carrageenin; salts' dosage expressed as acid
recorded.metric: % Inhibition of oedema (%)
Hi! Could you send only the number? It should be in %, unit omitted.

**Query** What % Inhibition of oedema appears in the records for this molecule with edema induced by carrageenin? O=C(O)Cc1ccc(OCC2CC2)c(Cl)c1 [4-cyclopropylmethyleneoxy-3-chlorophenylacetic acid]
**Result** 31

**Query** Please do the same for O=C([O-])Cc1ccc(OCC2CC2)c(Cl)c1.O=C([O-])Cc1ccc(OCC2CC2)c(Cl)c1.[Cu+2] as well.
**Result** 38

**Query** Please do the same for CCCCC1C(=O)N(c2ccccc2)N(c2ccccc2)C1=O [phenylbutazone, 4-butyl-1,2-diphenyl-3,5-dioxopyrazoline, reference compound] as well.
**Result** 0

**Query** Please do the same for O=C(O)Cc1ccc(OCC2CC2)c(Cl)c1 [DL-lysine 4-cyclopropylmethyleneoxy-3-chlorophenylacetate] as well.
**Result** 41

**Query** Please do the same for C=CCOc1ccc(CC(=O)O)cc1Cl [4-allyloxy-3-chlorophenylacetic acid, reference compound] as well.
**Result** 18

====

system: pain threshold of rat's paw made edematous by yeast; assay: Analgesic activity, Randall and Selitto (pain threshold of edematous rat paw); type: in vivo, male Wistar rats; conditions: 50 mg/kg os; salts' dosage expressed as acid; vs basal values
Assign yes (1) to entries whose % Increase of pain threshold meets or exceeds 90%; assign no (0) to the rest.

**Query** Does O=C(O)Cc1ccc(OCC2CC2)c(Cl)c1 [4-cyclopropylmethyleneoxy-3-chlorophenylacetic acid] have a reported % Increase of pain threshold of at least 90%?
**Result** yes (1)

**Query** Please do the same for CCCCC1C(=O)N(c2ccccc2)N(c2ccccc2)C1=O [phenylbutazone, 4-butyl-1,2-diphenyl-3,5-dioxopyrazoline, reference compound] as well.
**Result** yes (1)

**Query** Please do the same for C=CCOc1ccc(CC(=O)O)cc1Cl [4-allyloxy-3-chlorophenylacetic acid, reference compound] as well.
**Result** no (0)

**Query** Please do the same for O=C([O-])Cc1ccc(OCC2CC2)c(Cl)c1.O=C([O-])Cc1ccc(OCC2CC2)c(Cl)c1.[Cu+2] as well.
**Result** yes (1)

**Query** Please do the same for O=C(O)Cc1ccc(OCC2CC2)c(Cl)c1 [DL-lysine 4-cyclopropylmethyleneoxy-3-chlorophenylacetate] as well.
**Result** yes (1)

// data source = patent US3976673A
